Biological target: glucocorticoid receptor (GR) (Rattus norvegicus)
Construct: host or cells: T47D (A1-2)
Assay: GR-mediated induction of transcription by dexamethasone in T47D (A1-2) cells (luciferase reporter and endogenous alkaline phosphatase)
Format: cell-based, human
Conditions: T47D, 8 µM; AP (alkaline phosphatase); dexamethasone 1.0 nM; read-out: % Inhibition of GR Induction
REPORTED_ENDPOINT: inhibition at 8 µM (%)

I. O=C1CC(c2ccc(O)cc2)Oc2cc(O)cc(O)c21 (stereo not drawn) [5,7,4′-trihydroxyflavanone]
II. O=c1cc(-c2ccccc2)oc2cc(O)cc(O)c12 [5,7-dihydroxyflavone]
Hi team, can someone confirm which has the larger inhibition at 8 µM: I or II ? Thanks. Mark your selection by writing its label.
II
(II: 38%, I: 7%)

P. O=c1c(-c2ccc(O)cc2)coc2cc(O)ccc12 [7,4′-dihydroxyisoflavone]
Q. O=c1cc(-c2ccc(O)c(O)c2)oc2ccccc12 [3′,4′-dihydroxyflavone]
Hi team, can someone confirm which has the larger inhibition at 8 µM: P or Q ? Thanks. Mark your selection by writing its label.
Q

P. O=c1cc(-c2ccc(O)cc2)oc2ccccc12 [4′-hydroxyflavone]
Q. O=c1cc(-c2ccc(O)cc2)oc2cccc(O)c12 [5,4′-dihydroxyflavone]
R. O=c1cc(-c2ccccc2)oc2cccc(O)c12 [5-hydroxyflavone]
hey, can you rank those molecules up there by inhibition at 8 µM? biggest number first please Rank them, then answer with their labels in that order.
P, Q, R

###

Biological target: glucocorticoid receptor (GR) (Rattus norvegicus, UniProt P06536)
Construct: host or cells: T47D (A1-2)
Sequence (P06536 1-795): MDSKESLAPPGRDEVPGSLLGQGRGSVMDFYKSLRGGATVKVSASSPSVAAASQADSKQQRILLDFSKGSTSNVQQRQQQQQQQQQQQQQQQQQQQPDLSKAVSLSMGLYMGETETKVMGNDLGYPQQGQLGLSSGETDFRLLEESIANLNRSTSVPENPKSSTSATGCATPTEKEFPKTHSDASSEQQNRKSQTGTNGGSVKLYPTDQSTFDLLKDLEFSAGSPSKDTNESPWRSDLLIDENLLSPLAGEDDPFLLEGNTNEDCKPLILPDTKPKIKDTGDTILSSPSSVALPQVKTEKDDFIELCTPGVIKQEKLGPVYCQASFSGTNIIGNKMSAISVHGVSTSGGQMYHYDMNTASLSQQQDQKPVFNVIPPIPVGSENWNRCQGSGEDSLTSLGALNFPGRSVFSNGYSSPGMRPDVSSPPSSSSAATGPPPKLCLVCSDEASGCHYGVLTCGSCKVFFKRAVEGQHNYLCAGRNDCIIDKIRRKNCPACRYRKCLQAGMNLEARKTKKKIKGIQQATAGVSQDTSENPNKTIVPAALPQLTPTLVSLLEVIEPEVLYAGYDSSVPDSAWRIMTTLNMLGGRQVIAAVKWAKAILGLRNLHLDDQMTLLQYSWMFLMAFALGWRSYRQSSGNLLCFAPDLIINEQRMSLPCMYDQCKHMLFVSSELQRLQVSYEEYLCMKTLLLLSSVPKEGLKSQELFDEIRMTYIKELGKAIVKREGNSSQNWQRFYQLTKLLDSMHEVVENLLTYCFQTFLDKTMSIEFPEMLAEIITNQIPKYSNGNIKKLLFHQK
Test: GR-mediated induction of transcription by dexamethasone in T47D (A1-2) cells (luciferase reporter and endogenous alkaline phosphatase)
Format: cell-based, human
Conditions: T47D, 8 µM; AP (alkaline phosphatase); dexamethasone 1.0 nM; read-out: % Inhibition of GR Induction
REPORTED_ENDPOINT: inhibition at 8 µM (%)

Given item O=c1cc(-c2ccc(O)cc2)oc2cc(O)cc(O)c12 [5,7,4′-trihydroxyflavone] , the value recorded as its inhibition at 8 µM is 49

Given item O=c1cc(-c2ccccc2)oc2ccccc12 , the value recorded as its inhibition at 8 µM is 34

Given item O=c1cc(-c2ccc(O)c(O)c2)oc2cc(O)cc(O)c12 [5,7,3′,4′-tetrahydroxyflavone] , the value recorded as its inhibition at 8 µM is 55

Given item O=c1cc(-c2ccc(O)cc2)oc2ccc(O)cc12 [6,4′-dihydroxyflavone] , the value recorded as its inhibition at 8 µM is 39

###

Biological target: glucocorticoid receptor (GR) (Rattus norvegicus, UniProt P06536)
Construct: host or cells: T47D (A1-2)
Assay: GR-mediated induction of transcription by dexamethasone in T47D (A1-2) cells (luciferase reporter and endogenous alkaline phosphatase)
Format: cell-based, human
Conditions: T47D, 4 µM; LUC (luciferase); dexamethasone 1.0 nM; read-out: % Inhibition of GR Induction
REPORTED_ENDPOINT: inhibition at 4 µM (%)

Given item O=c1cc(-c2ccc(O)c(O)c2)oc2ccccc12 [3′,4′-dihydroxyflavone] , the value recorded as its inhibition at 4 µM is -2

P. O=c1cc(-c2ccc(O)cc2)oc2cc(O)cc(O)c12 [5,7,4′-trihydroxyflavone]
Q. O=c1cc(-c2ccc(O)c(O)c2)oc2cc(O)ccc12 [7,3′,4′-trihydroxyflavone]
R. O=c1c(-c2ccc(O)cc2)coc2cc(O)cc(O)c12 [5,7,4′-trihydroxyisoflavone]
S. O=c1cc(-c2ccc(O)cc2)oc2ccc(O)cc12 [6,4′-dihydroxyflavone]
hey, can you rank those compounds up there by inhibition at 4 µM? biggest number first please Rank them, then answer with their labels in that order.
P, R, S, Q
(P: 6%, R: -7%, S: -44%, Q: -117%)

###

Target: glucocorticoid receptor (GR) (Rattus norvegicus)
Construct: host or cells: T47D (A1-2)
Test: GR-mediated induction of transcription by dexamethasone in T47D (A1-2) cells (luciferase reporter and endogenous alkaline phosphatase)
Format: cell-based, human
Details: T47D, 8 µM; LUC (luciferase); dexamethasone 1.0 nM; read-out: % Inhibition of GR Induction
REPORTED_ENDPOINT: inhibition at 8 µM (%)

Given item COc1ccc([C@@H]2CC(=O)c3c(O)cc(O)cc3O2)cc1O , the value recorded as its inhibition at 8 µM is 15

I. O=C1CC(c2ccc(O)cc2)Oc2cc(O)cc(O)c21 (stereo not shown) [5,7,4′-trihydroxyflavanone]
II. O=c1cc(-c2ccc(O)c(O)c2)oc2cc(O)cc(O)c12 [5,7,3′,4′-tetrahydroxyflavone]
III. O=c1cc(-c2ccc(O)cc2)oc2cc(O)cc(O)c12 [5,7,4′-trihydroxyflavone]
hey, can you rank those molecules up there by inhibition at 8 µM? biggest number first please Rank them, then answer with their labels in that order.
III, I, II

###

Target: progesterone receptor (PR) (Homo sapiens)
Sequence (P06401 679-933 limits assumed): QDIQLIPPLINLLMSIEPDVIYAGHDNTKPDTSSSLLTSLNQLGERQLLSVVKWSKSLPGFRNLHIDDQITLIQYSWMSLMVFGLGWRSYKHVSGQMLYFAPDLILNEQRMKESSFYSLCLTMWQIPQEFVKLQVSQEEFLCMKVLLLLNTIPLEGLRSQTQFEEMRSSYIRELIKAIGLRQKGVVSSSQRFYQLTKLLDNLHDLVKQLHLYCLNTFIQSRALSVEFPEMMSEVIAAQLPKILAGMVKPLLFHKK
Experiment: PR-mediated induction of transcription by R5020 in T47D K5pLuc cells (luciferase reporter and endogenous alkaline phosphatase)
Assay type: cell-based
Settings: T47D, 8 µM; LUC (luciferase); R5020 1.0 nM
REPORTED_ENDPOINT: inhibition at 8 µM (%)

Here are 3 compounds together with their reported answers.
Given item O=c1cc(-c2ccc(O)cc2)oc2cccc(O)c12 [5,4′-dihydroxyflavone] , the value recorded as its inhibition at 8 µM is 80

Given item COc1ccc([C@@H]2CC(=O)c3c(O)cc(O)cc3O2)cc1O [5,7,3′-triOH, 4′methoxyflavanone] , the value recorded as its inhibition at 8 µM is 16

Given item O=c1c(O)c(-c2ccc(O)c(O)c2)oc2cc(O)cc(O)c12 [3,5,7,3′,4′-pentahydroxyflavone] , the value recorded as its inhibition at 8 µM is 78

A. O=c1cc(-c2ccc(O)c(O)c2)oc2ccccc12 [3′,4′-dihydroxyflavone]
B. O=c1cc(-c2ccc(O)cc2)oc2ccccc12 [4′-hydroxyflavone]
Hi team, can someone confirm which has the larger inhibition at 8 µM: A or B ? Thanks. Mark your selection by writing its label.
A
(A: -14%, B: -81%)

###

Target: human AR (Homo sapiens, UniProt P10275)
Construct: expressed in transfected cells; host or cells: HeLa13 (HeLa 13)
Assay: AR-mediated induction of PSA-luciferase reporter by R1881 in HeLa13 cells
Format: cell-based
Settings: 4 µM; R1881 1.0 nM; read-out: % Inhibition of AR-Mediated Gene Induction
REPORTED_ENDPOINT: inhibition at 4 µM (%)

Here are 2 compounds together with their reported answers.
Given item O=c1c(O)c(-c2ccccc2)oc2ccc(O)cc12 [3,6-dihydroxyflavone] , the value recorded as its inhibition at 4 µM is 52

Given item O=C1CC(c2ccccc2)Oc2ccc(O)cc21 (stereo not drawn) [6-hydroxyflavanone] , the value recorded as its inhibition at 4 µM is 22

P. O=c1c(O)c(-c2ccc(O)cc2)oc2cc(O)ccc12 [3,7,4′-trihydroxyflavone]
Q. O=c1cc(-c2ccc(O)cc2)oc2ccccc12 [4′-hydroxyflavone]
Hi team, can someone confirm which has the larger inhibition at 4 µM: P or Q ? Thanks. Mark your selection by writing its label.
Q

P. COc1cccc2oc(-c3ccc(O)cc3)cc(=O)c12 [5-methoxy,4′-hydroxyflavone]
Q. COc1ccc2oc(-c3ccc(O)cc3)cc(=O)c2c1 [6-methoxy,4′-hydroxyflavone]
R. O=C1CC(c2ccc(O)cc2)Oc2cc(O)cc(O)c21 (stereo not drawn) [5,7,4′-trihydroxyflavanone]
S. O=c1cc(-c2ccc(O)c(O)c2)oc2ccccc12 [3′,4′-dihydroxyflavone]
hey, can you rank those compounds up there by inhibition at 4 µM? biggest number first please Rank them, then answer with their labels in that order.
S, Q, P, R

Recorded values, source paper PMC11940309.
